SYSTEM_TESTED: SSTR4 (Homo sapiens (Human))
Sequence (P31391 whole entry): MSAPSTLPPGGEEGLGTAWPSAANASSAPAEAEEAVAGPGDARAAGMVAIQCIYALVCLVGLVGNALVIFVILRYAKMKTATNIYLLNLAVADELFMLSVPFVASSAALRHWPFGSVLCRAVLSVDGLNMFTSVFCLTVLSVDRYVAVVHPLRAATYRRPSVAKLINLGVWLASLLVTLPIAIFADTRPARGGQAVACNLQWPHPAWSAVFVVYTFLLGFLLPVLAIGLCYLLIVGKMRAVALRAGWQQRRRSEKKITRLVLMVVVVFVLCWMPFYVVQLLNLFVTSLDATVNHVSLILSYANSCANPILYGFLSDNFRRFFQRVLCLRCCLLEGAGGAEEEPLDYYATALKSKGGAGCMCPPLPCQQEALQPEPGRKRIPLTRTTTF
PROTOCOL: SSTR4 I-125 somatostatin competition binding assay (membranes from CHO-K1 cells overexpressing SSTR4)
CONDITION_NOTES: competition with I-125 labeled somatostatin
ASSAY_READOUT: SSTR4 Binding pIC50
// response body must contain only the number

Need SSTR4 Binding pIC50, item `Cc1cccnc1OCC(C)(C)C(=O)NC1CCN(C)CC1`
6.4

Need SSTR4 Binding pIC50, item Cc1cccnc1OCC(C)(C)C(=O)N[C@@H]1CN(C)C[C@H]1c1cnn(C)c1 (relative stereo)
6.0

Need SSTR4 Binding pIC50, item `CN1CCC(NC(=O)C(C)(C)COc2ccccc2Cl)CC1`
7.0

Need SSTR4 Binding pIC50, item Cc1nn(C)cc1[C@@H]1CN(C)C[C@H]1NC(=O)C(C)(C)COc1ncccc1OC(F)(F)F (relative stereo)
7.4

Need SSTR4 Binding pIC50, item CN1C[C@@H](NC(=O)C(C)(C)COc2ncccc2C2CC2)[C@H](c2cnn(C)c2)C1 (relative stereo)
7.0

Need SSTR4 Binding pIC50, item CC(C)[C@@H]1CN(C)C[C@H]1NC(=O)C(C)(C)COc1ncccc1OC(F)(F)F (relative stereo)
7.2

Need SSTR4 Binding pIC50, item `CN1CCC(NC(=O)C(C)(C)COc2ncccc2C(F)(F)F)CC1`
6.4

Need SSTR4 Binding pIC50, item C[C@@H]1CN(C)CC[C@H]1NC(=O)C(C)(C)COc1ncccc1OC(F)(F)F (single isomer, unassigned) [Example 108]
6.1

Need SSTR4 Binding pIC50, item `CN1CCC(NC(=O)C(C)(C)COc2ccccc2OC(F)(F)F)CC1`
7.8

====

SYSTEM_TESTED: SSTR4 (Homo sapiens (Human))
PROTOCOL: Inhibition of forskolin stimulated cAMP in CHO-K1 cells overexpressing SSTR4
Type: cell-based
Exercise: state measured SSTR4 Activity pEC50 for each of the compounds provided.
// response body must contain only the number

Need SSTR4 Activity pEC50, item CC(C)(COc1ncccc1C(F)(F)F)C(=O)NC1CNCC1(F)F (centres unmarked)
6.1

Need SSTR4 Activity pEC50, item CN1CCC(NC(=O)C(C)(C)COc2ncccc2C(F)(F)F)C2(CC2)C1 (centres unmarked)
8.0

Need SSTR4 Activity pEC50, item C[C@H]1C[C@@H](NC(=O)C(C)(C)COc2ncccc2OC(F)(F)F)CCN1C (relative stereo) [Example 136]
8.1

Need SSTR4 Activity pEC50, item `CN1CC[C@@H](NC(=O)C(C)(C)COc2ncccc2C2CC2)C1`
7.4

Need SSTR4 Activity pEC50, item CC(C)[C@@H]1CN(C)C[C@H]1NC(=O)C(C)(C)COc1ncccc1OC(F)(F)F (relative stereo)
7.8

====

Exercise: state measured SSTR4 Activity pEC50 for each of the compounds provided.
SYSTEM_TESTED: UniProt:P31391
PROTOCOL: Inhibition of forskolin stimulated cAMP in CHO-K1 cells overexpressing SSTR4
Assay type: cell-based
// response body must contain only the number

Need SSTR4 Activity pEC50, item CC(C)(COc1ncccc1C(F)(F)F)C(=O)NC1CCNCC1(F)F (stereo not drawn)
6.7

Need SSTR4 Activity pEC50, item `CN1CC[C@H](NC(=O)C(C)(C)COc2ncccc2OC(F)(F)F)[C@@H](F)C1`
7.6

Need SSTR4 Activity pEC50, item `CN1C[C@H](NC(=O)C(C)(C)COc2ncccc2OC(F)(F)F)C2(CC2)C1`
8.2

Need SSTR4 Activity pEC50, item `CN(C(=O)C(C)(C)COc1ncccc1C(F)(F)F)[C@H]1CCNC[C@@H]1F`
6.4

Need SSTR4 Activity pEC50, item `C[C@H]1CNCC[C@@H]1NC(=O)C(F)(F)COc1ncccc1C1CC1`
9.2

Need SSTR4 Activity pEC50, item C[C@@H]1CN(C)CC[C@H]1NC(=O)C(C)(C)COc1ncccc1OC(F)(F)F (single isomer, unassigned) [Example 13]
8.4

Need SSTR4 Activity pEC50, item `CN1CCC(NC(=O)C(C)(C)COc2ncccc2C(F)F)CC1`
6.6

Need SSTR4 Activity pEC50, item C[C@H]1C[C@@H](NC(=O)C(C)(C)COc2ncccc2C(F)(F)F)CCN1C (relative stereo)
7.7

Need SSTR4 Activity pEC50, item `Cc1cccnc1OCC(C)(C)C(=O)N[C@H]1CN(C)CC12CC2`
8.1

Need SSTR4 Activity pEC50, item `CN1CCC(NC(=O)C(C)(C)COc2ccccc2OC(F)(F)F)CC1`
8.7

Need SSTR4 Activity pEC50, item `Cc1ccccc1OCC(C)(C)C(=O)NC1CCN(C)CC1`
7.7

Need SSTR4 Activity pEC50, item Cc1cccnc1OCC(C)(C)C(=O)N[C@@H]1CN(C)C[C@H]1c1cnn(C)c1 (relative stereo)
7.1

Need SSTR4 Activity pEC50, item `CN1CC[C@@H](NC(=O)C(C)(C)COc2ccccc2C(F)(F)F)C1`
7.9

Need SSTR4 Activity pEC50, item `O=C(N[C@H]1CCNC[C@@H]1F)C(F)(F)COc1ncccc1C1CC1`
8.2

Need SSTR4 Activity pEC50, item C[C@@H]1CN(C)CC[C@H]1NC(=O)C(F)(F)COc1ncccc1C(F)(F)F (relative stereo)
6.8

Need SSTR4 Activity pEC50, item CN1CCC(NC(=O)C(C)(C)COc2ncccc2C(F)(F)F)C(Cl)C1 (stereo not drawn)
5.9

Need SSTR4 Activity pEC50, item `Cc1cnc(OCC(C)(C)C(=O)N[C@@H]2CCNC[C@H]2F)c(C)c1`
8.2

Need SSTR4 Activity pEC50, item `CN1CC[C@@H](CNC(=O)C(C)(C)COc2ncccc2C(F)(F)F)C1`
6.3

Need SSTR4 Activity pEC50, item `CC[C@H]1CN(C)CC[C@@H]1NC(=O)C(C)(C)COc1ncccc1C(F)(F)F`
6.2

Need SSTR4 Activity pEC50, item C[C@@H]1CN(C)CC[C@H]1NC(=O)C(C)(C)COc1ncccc1C(F)(F)F (relative stereo) [Example 11]
8.0

Need SSTR4 Activity pEC50, item CN1CCC(NC(=O)C(C)(C)COc2ncccc2OC(F)(F)F)C2(CC2)C1 (stereo not drawn)
9.0

Need SSTR4 Activity pEC50, item Cc1cccnc1OCC(C)(C)C(=O)N[C@@H]1CN(C)C[C@H]1c1cnn(C)c1C (relative stereo)
8.6

Need SSTR4 Activity pEC50, item C[C@@H]1CN(C)CC[C@H]1NC(=O)C(C)(C)COc1ncccc1OC(F)(F)F (single isomer, unassigned) [Example 108]
6.8

Need SSTR4 Activity pEC50, item `CN1CCC(NC(=O)C(C)(C)COc2ccc(F)cc2)CC1`
6.4

Need SSTR4 Activity pEC50, item `Cc1cccnc1OCC(F)(F)C(=O)N[C@@H]1CCN(C)[C@H](C)C1`
6.9

Need SSTR4 Activity pEC50, item CN1CC(NC(=O)C(C)(C)COc2ncccc2C(F)(F)F)CC1(C)C (stereo not drawn)
6.5

Need SSTR4 Activity pEC50, item Cc1cccnc1OCC(C)(C)C(=O)N[C@@H]1CN(C)C[C@H]1c1cn(C)nc1C (relative stereo)
8.0

Need SSTR4 Activity pEC50, item `CN1C[C@H](NC(=O)C(C)(C)COc2ncccc2C(F)(F)F)C2(CC2)C1`
8.1

Need SSTR4 Activity pEC50, item `Cc1cnccc1OCC(C)(C)C(=O)NC1CCN(C)CC1`
6.2

Need SSTR4 Activity pEC50, item `C[C@H]1CNCC[C@@H]1NC(=O)C(F)(F)COc1ncccc1OC(F)(F)F`
9.1

Need SSTR4 Activity pEC50, item Cc1c([C@@H]2CN(C)C[C@H]2NC(=O)C(C)(C)COc2ncccc2OC(F)(F)F)cnn1C (relative stereo)
9.0

Need SSTR4 Activity pEC50, item `C[C@@H]1C[C@H](NC(=O)C(C)(C)COc2ncccc2C2CC2)CCN1C`
8.6

Need SSTR4 Activity pEC50, item `Cc1ccc(C2CC2)c(OCC(C)(C)C(=O)NC2CCN(C)CC2)n1`
7.1
